Biological target: Vascular endothelial growth factor receptor 2 (Homo sapiens, UniProt P35968)
Sequence (P35968 whole entry, the tested form may be a part): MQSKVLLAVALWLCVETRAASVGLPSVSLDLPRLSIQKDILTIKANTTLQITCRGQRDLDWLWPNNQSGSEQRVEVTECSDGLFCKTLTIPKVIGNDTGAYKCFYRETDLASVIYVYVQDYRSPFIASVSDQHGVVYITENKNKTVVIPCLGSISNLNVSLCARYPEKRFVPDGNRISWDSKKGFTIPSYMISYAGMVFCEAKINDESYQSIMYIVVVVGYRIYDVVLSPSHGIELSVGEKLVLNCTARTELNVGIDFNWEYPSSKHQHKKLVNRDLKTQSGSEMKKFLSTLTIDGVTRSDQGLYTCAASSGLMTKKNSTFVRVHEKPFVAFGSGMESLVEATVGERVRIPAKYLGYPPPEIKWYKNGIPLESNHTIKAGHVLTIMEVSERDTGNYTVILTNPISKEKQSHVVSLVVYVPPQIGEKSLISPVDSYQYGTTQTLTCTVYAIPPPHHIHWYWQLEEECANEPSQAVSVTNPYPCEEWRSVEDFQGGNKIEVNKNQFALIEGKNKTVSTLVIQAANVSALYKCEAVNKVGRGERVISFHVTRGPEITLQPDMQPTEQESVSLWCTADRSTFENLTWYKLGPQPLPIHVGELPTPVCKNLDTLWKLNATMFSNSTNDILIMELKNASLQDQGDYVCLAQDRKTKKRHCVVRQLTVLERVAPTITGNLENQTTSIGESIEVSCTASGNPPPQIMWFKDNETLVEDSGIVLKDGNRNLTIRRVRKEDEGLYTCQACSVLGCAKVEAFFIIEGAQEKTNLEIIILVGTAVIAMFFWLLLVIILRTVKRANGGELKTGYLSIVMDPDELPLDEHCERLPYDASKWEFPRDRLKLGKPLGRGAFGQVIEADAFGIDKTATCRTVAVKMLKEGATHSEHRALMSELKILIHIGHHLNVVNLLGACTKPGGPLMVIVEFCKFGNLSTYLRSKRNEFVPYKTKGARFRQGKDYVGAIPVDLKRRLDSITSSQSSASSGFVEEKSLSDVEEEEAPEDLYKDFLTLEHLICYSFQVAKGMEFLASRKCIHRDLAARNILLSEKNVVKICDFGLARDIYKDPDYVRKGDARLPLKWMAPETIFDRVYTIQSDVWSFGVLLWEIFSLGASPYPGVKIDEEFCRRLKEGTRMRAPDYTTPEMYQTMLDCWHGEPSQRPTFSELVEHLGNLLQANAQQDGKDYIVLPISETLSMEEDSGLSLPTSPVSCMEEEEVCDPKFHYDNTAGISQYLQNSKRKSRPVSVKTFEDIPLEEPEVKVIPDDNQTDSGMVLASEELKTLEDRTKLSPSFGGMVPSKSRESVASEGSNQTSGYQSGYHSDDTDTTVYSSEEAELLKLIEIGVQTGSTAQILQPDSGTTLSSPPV
Test: Inhibition of recombinant human N-terminal GST-fused KDR (D807 to V1356 residues) expressed in baculovirus infected […] insect Sf9 cells using poly-EY as substrate after 240 mins by luciferase coupled chemiluminescence assay

>  <COMPOUND>
COc1cc2c(Nc3ccc(Cl)c(Cl)c3)ncnc2cc1OCC1CN(CC=C(C)C)CCO1 (centres undefined)

>  <IC50>
50 to 1000 nM

$$$$
>  <COMPOUND>
CC(C)Oc1cc2c(Nc3ccc(Cl)c(Cl)c3)ncnc2cc1OCC1CNCCO1 (centres undefined)

>  <IC50>
< 50 nM

$$$$
>  <COMPOUND>
COc1cc2c(Nc3ccc(Br)c(Cl)c3)ncnc2cc1O[C@H]1CO[C@H]2[C@@H]1OC[C@@H]2N1CCOCC1

>  <IC50>
1000 to 20000 nM

$$$$
>  <COMPOUND>
COc1cc2c(Nc3ccc(Cl)c(Cl)c3)ncnc2cc1OCC1OCCN(CC(=O)c2ccccc2)C1=O (centres undefined)

>  <IC50>
50 to 1000 nM

$$$$
>  <COMPOUND>
CCC(C(=O)N1CCOC(COc2cc3ncnc(Nc4ccc(Cl)c(Cl)c4)c3cc2OC)C1)c1ccccc1 (centres undefined)

>  <IC50>
50 to 1000 nM

$$$$
>  <COMPOUND>
CCS(=O)(=O)N1CCOC(COc2cc3ncnc(Nc4ccc(Cl)c(Cl)c4)c3cc2OC)C1 (centres undefined)

>  <IC50>
50 to 1000 nM

$$$$
>  <COMPOUND>
COc1cc2c(Nc3ccc(Br)c(C)c3)ncnc2cc1OCC1CN(C)CCO1 (centres undefined)

>  <IC50>
50 to 1000 nM

$$$$
>  <COMPOUND>
COc1cc2c(Nc3ccc(Cl)c(Cl)c3)ncnc2cc1OCCC1CN(C(=O)OC(C)(C)C)C(C)(C)CO1 (centres undefined)

>  <IC50>
1000 to 20000 nM

$$$$
>  <COMPOUND>
COc1cc2c(Nc3cc(Cl)c(Cl)cc3F)ncnc2cc1OCC1CN(C)C(C)(C)CO1 (centres undefined)

>  <IC50>
< 50 nM

$$$$

---

Target: Vascular endothelial growth factor receptor 2 (Homo sapiens)
Assay: Inhibition of recombinant human N-terminal GST-fused KDR (D807 to V1356 residues) expressed in baculovirus infected […] insect Sf9 cells using poly-EY as substrate after 240 mins by luciferase coupled chemiluminescence assay
pIC50: −log10 of the molar value.
READOUT LABEL: pIC50

>  <COMPOUND>
COc1cc(Nc2ncnc3cc(OCC4CN(C)CCO4)c(OC)cc23)c(OC)cc1Cl (configuration not stated)

>  <ASSAY TARGET>
Vascular endothelial growth factor receptor 2 (Homo sapiens)

>  <ENDPOINT RESULT>
4.70 to 6.00

$$$$
>  <COMPOUND>
COc1cc2c(Nc3ccc(Cl)c(Cl)c3F)ncnc2cc1OC[C@@H]1CN2CCOC[C@H]2CO1

>  <ASSAY TARGET>
Vascular endothelial growth factor receptor 2 (Homo sapiens)

>  <ENDPOINT RESULT>
> 7.30

$$$$
>  <COMPOUND>
COc1cc2c(Nc3ccc(Br)c(Cl)c3)ncnc2cc1O[C@H]1CO[C@H]2[C@@H]1OC[C@@H]2NC(C)=O

>  <ASSAY TARGET>
Vascular endothelial growth factor receptor 2 (Homo sapiens)

>  <ENDPOINT RESULT>
4.70 to 6.00

$$$$
>  <COMPOUND>
COc1cc2c(Nc3ccc(Cl)c(Cl)c3F)ncnc2cc1OC[C@@H]1CN2CCC[C@H]2C(=O)N1

>  <ASSAY TARGET>
Vascular endothelial growth factor receptor 2 (Homo sapiens)

>  <ENDPOINT RESULT>
> 7.30

$$$$
>  <COMPOUND>
COc1cc2c(Nc3ccc(Cl)c(Cl)c3)ncnc2cc1OCc1nc2c(s1)CN(C)CC2

>  <ASSAY TARGET>
Vascular endothelial growth factor receptor 2 (Homo sapiens)

>  <ENDPOINT RESULT>
6.00 to 7.30

$$$$
>  <COMPOUND>
COc1cc2c(Nc3ccc(Br)c(Cl)c3Cl)ncnc2cc1OCC1CN(C)CCO1 (configuration not stated)

>  <ASSAY TARGET>
Vascular endothelial growth factor receptor 2 (Homo sapiens)

>  <ENDPOINT RESULT>
6.00 to 7.30

$$$$
>  <COMPOUND>
COc1cc2c(Nc3ccc(Cl)c(Cl)c3)ncnc2cc1OCC1CN(C)C(C)(C)CO1 (configuration not stated)

>  <ASSAY TARGET>
Vascular endothelial growth factor receptor 2 (Homo sapiens)

>  <ENDPOINT RESULT>
> 7.30

$$$$
>  <COMPOUND>
COc1cc2c(Nc3ccc(Br)c(Cl)c3F)ncnc2cc1OC[C@@H]1CN2CCC[C@H]2CO1

>  <ASSAY TARGET>
Vascular endothelial growth factor receptor 2 (Homo sapiens)

>  <ENDPOINT RESULT>
> 7.30

$$$$
>  <COMPOUND>
COCCOc1cc2c(Nc3ccc(Cl)c(Cl)c3)ncnc2cc1OCC1CNCCO1 (configuration not stated)

>  <ASSAY TARGET>
Vascular endothelial growth factor receptor 2 (Homo sapiens)

>  <ENDPOINT RESULT>
> 7.30

$$$$
>  <COMPOUND>
COc1cc2c(Nc3ccc(Br)c(Cl)c3C)ncnc2cc1OCC1CN(C)CCO1 (configuration not stated)

>  <ASSAY TARGET>
Vascular endothelial growth factor receptor 2 (Homo sapiens)

>  <ENDPOINT RESULT>
6.00 to 7.30

$$$$
>  <COMPOUND>
COc1cc2c(Nc3ccc(Cl)c(Cl)c3)ncnc2cc1OCC1CN(CCCOC2CCCCO2)CCCO1 (configuration not stated)

>  <ASSAY TARGET>
Vascular endothelial growth factor receptor 2 (Homo sapiens)

>  <ENDPOINT RESULT>
> 7.30

$$$$
>  <COMPOUND>
COc1cc2c(Nc3ccc(Cl)c(Cl)c3F)ncnc2cc1OC[C@@H]1CN2CCC[C@H]2CO1

>  <ASSAY TARGET>
Vascular endothelial growth factor receptor 2 (Homo sapiens)

>  <ENDPOINT RESULT>
> 7.30

$$$$
>  <COMPOUND>
COc1cc2c(Nc3ccc(Cl)c(Cl)c3)ncnc2cc1OCC1CN(C(=O)CCC(C)C)CCO1 (configuration not stated)

>  <ASSAY TARGET>
Vascular endothelial growth factor receptor 2 (Homo sapiens)

>  <ENDPOINT RESULT>
6.00 to 7.30

$$$$
>  <COMPOUND>
COc1cc2c(Nc3ccc(Cl)c(Cl)c3)ncnc2cc1OC[C@@H]1CN2CCC[C@H]2CO1

>  <ASSAY TARGET>
Vascular endothelial growth factor receptor 2 (Homo sapiens)

>  <ENDPOINT RESULT>
> 7.30

$$$$
>  <COMPOUND>
CCN1CCN(CC)C(COc2cc3ncnc(Nc4ccc(Cl)c(Cl)c4)c3cc2OC)C1 (configuration not stated)

>  <ASSAY TARGET>
Vascular endothelial growth factor receptor 2 (Homo sapiens)

>  <ENDPOINT RESULT>
4.70 to 6.00

$$$$
>  <COMPOUND>
COc1cc2c(Nc3ccc(Cl)c(Cl)c3)ncnc2cc1OCC1CN(CCO)CCO1 (configuration not stated)

>  <ASSAY TARGET>
Vascular endothelial growth factor receptor 2 (Homo sapiens)

>  <ENDPOINT RESULT>
6.00 to 7.30

$$$$
>  <COMPOUND>
COc1cc2c(Nc3ccc(Cl)c(Cl)c3)ncnc2cc1OCc1csc(CN2CCCC2)n1

>  <ASSAY TARGET>
Vascular endothelial growth factor receptor 2 (Homo sapiens)

>  <ENDPOINT RESULT>
6.00 to 7.30

$$$$
>  <COMPOUND>
COc1cc2c(Nc3ccc(Cl)c(Cl)c3)ncnc2cc1OCC1CN(C(=O)c2cc(F)ccc2F)CCO1 (configuration not stated)

>  <ASSAY TARGET>
Vascular endothelial growth factor receptor 2 (Homo sapiens)

>  <ENDPOINT RESULT>
6.00 to 7.30

$$$$
>  <COMPOUND>
COc1cc2c(Nc3ccc(Cl)c(Cl)c3)ncnc2cc1OCC1CN(C(=O)CC(=O)O)CCO1 (configuration not stated)

>  <ASSAY TARGET>
Vascular endothelial growth factor receptor 2 (Homo sapiens)

>  <ENDPOINT RESULT>
> 7.30

$$$$
>  <COMPOUND>
COc1cc2c(Nc3ccc(Br)c(Cl)c3F)ncnc2cc1OC[C@@H]1CN2CCC[C@H]2C(=O)N1

>  <ASSAY TARGET>
Vascular endothelial growth factor receptor 2 (Homo sapiens)

>  <ENDPOINT RESULT>
> 7.30

$$$$
>  <COMPOUND>
CCCCc1ccc(C(=O)N2CCOC(COc3cc4ncnc(Nc5ccc(Cl)c(Cl)c5)c4cc3OC)C2)cc1 (configuration not stated)

>  <ASSAY TARGET>
Vascular endothelial growth factor receptor 2 (Homo sapiens)

>  <ENDPOINT RESULT>
4.70 to 6.00

$$$$
>  <COMPOUND>
COc1cc2c(Nc3ccc(Cl)c(Cl)c3)ncnc2cc1OCC1CN(Cc2ccccn2)CCO1 (configuration not stated)

>  <ASSAY TARGET>
Vascular endothelial growth factor receptor 2 (Homo sapiens)

>  <ENDPOINT RESULT>
> 7.30

$$$$
>  <COMPOUND>
CCOc1cc2c(Nc3ccc(Cl)c(Cl)c3)ncnc2cc1OCC1CN(C)CCO1 (configuration not stated)

>  <ASSAY TARGET>
Vascular endothelial growth factor receptor 2 (Homo sapiens)

>  <ENDPOINT RESULT>
> 7.30

$$$$
>  <COMPOUND>
COc1cc2c(Nc3ccc(Br)c(Cl)c3)ncnc2cc1O[C@@H]1CCOC1

>  <ASSAY TARGET>
Vascular endothelial growth factor receptor 2 (Homo sapiens)

>  <ENDPOINT RESULT>
6.00 to 7.30

$$$$
>  <COMPOUND>
CCC(CC)CN1CCCOC(COc2cc3ncnc(Nc4ccc(Cl)c(Cl)c4)c3cc2OC)C1 (configuration not stated)

>  <ASSAY TARGET>
Vascular endothelial growth factor receptor 2 (Homo sapiens)

>  <ENDPOINT RESULT>
6.00 to 7.30

$$$$
>  <COMPOUND>
CCC#CCN1CCOC(COc2cc3ncnc(Nc4ccc(Cl)c(Cl)c4)c3cc2OC)C1 (configuration not stated)

>  <ASSAY TARGET>
Vascular endothelial growth factor receptor 2 (Homo sapiens)

>  <ENDPOINT RESULT>
6.00 to 7.30

$$$$
>  <COMPOUND>
COc1cc2c(Nc3ccc(Cl)c(Cl)c3)ncnc2cc1OCC1CN(C(=O)c2ccc3c(c2)OCO3)CCO1 (configuration not stated)

>  <ASSAY TARGET>
Vascular endothelial growth factor receptor 2 (Homo sapiens)

>  <ENDPOINT RESULT>
6.00 to 7.30

$$$$
>  <COMPOUND>
C=CCN1CCOC(COc2cc3ncnc(Nc4ccc(Cl)c(Cl)c4)c3cc2OC)C1 (configuration not stated)

>  <ASSAY TARGET>
Vascular endothelial growth factor receptor 2 (Homo sapiens)

>  <ENDPOINT RESULT>
6.00 to 7.30

$$$$
>  <COMPOUND>
COc1cc2c(Nc3ccc(Cl)c(Cl)c3)ncnc2cc1OCC1CN(C2CCN(C)CC2)CCO1 (configuration not stated)

>  <ASSAY TARGET>
Vascular endothelial growth factor receptor 2 (Homo sapiens)

>  <ENDPOINT RESULT>
> 7.30

$$$$
>  <COMPOUND>
COc1cc2c(Nc3ccc(Cl)c(Cl)c3)ncnc2cc1OCC1CN(C(=O)c2cccnc2Cl)CCO1 (configuration not stated)

>  <ASSAY TARGET>
Vascular endothelial growth factor receptor 2 (Homo sapiens)

>  <ENDPOINT RESULT>
> 7.30

$$$$
>  <COMPOUND>
CCCCS(=O)(=O)N1CCOC(COc2cc3ncnc(Nc4ccc(Cl)c(Cl)c4)c3cc2OC)C1 (configuration not stated)

>  <ASSAY TARGET>
Vascular endothelial growth factor receptor 2 (Homo sapiens)

>  <ENDPOINT RESULT>
6.00 to 7.30

$$$$
>  <COMPOUND>
COc1cc2c(Nc3ccc(Cl)c(Cl)c3)ncnc2cc1OCC1CN(CCF)CCO1 (configuration not stated)

>  <ASSAY TARGET>
Vascular endothelial growth factor receptor 2 (Homo sapiens)

>  <ENDPOINT RESULT>
6.00 to 7.30

$$$$
>  <COMPOUND>
COc1cc2c(Nc3ccc(Cl)c(Cl)c3)ncnc2cc1OCC1CN(C(=O)c2ccc(Cl)nc2)CCO1 (configuration not stated)

>  <ASSAY TARGET>
Vascular endothelial growth factor receptor 2 (Homo sapiens)

>  <ENDPOINT RESULT>
6.00 to 7.30

$$$$
>  <COMPOUND>
COc1cc2c(Nc3ccc(Br)c(Cl)c3Cl)ncnc2cc1OC[C@@H]1CN2CCOC[C@H]2CO1

>  <ASSAY TARGET>
Vascular endothelial growth factor receptor 2 (Homo sapiens)

>  <ENDPOINT RESULT>
6.00 to 7.30

$$$$
>  <COMPOUND>
COc1cc2c(Nc3ccc(Cl)c(Cl)c3)ncnc2cc1OCC1CN(C(=O)c2c(F)ccc(F)c2F)CCO1 (configuration not stated)

>  <ASSAY TARGET>
Vascular endothelial growth factor receptor 2 (Homo sapiens)

>  <ENDPOINT RESULT>
6.00 to 7.30

$$$$
>  <COMPOUND>
COc1cc2c(Nc3ccc(Cl)c(Cl)c3F)ncnc2cc1OC[C@H]1CN2CCOC[C@H]2CO1

>  <ASSAY TARGET>
Vascular endothelial growth factor receptor 2 (Homo sapiens)

>  <ENDPOINT RESULT>
> 7.30

$$$$
>  <COMPOUND>
COc1cc2c(Nc3ccc(Cl)c(Cl)c3)ncnc2cc1OCC1CN(S(C)(=O)=O)CCO1 (configuration not stated)

>  <ASSAY TARGET>
Vascular endothelial growth factor receptor 2 (Homo sapiens)

>  <ENDPOINT RESULT>
6.00 to 7.30

$$$$

All values here come from ChEMBL document CHEMBL3882729.
